experimental.target: High affinity 3',5'-cyclic-AMP phosphodiesterase 7A (Homo sapiens)
Sequence (Q13946 whole entry): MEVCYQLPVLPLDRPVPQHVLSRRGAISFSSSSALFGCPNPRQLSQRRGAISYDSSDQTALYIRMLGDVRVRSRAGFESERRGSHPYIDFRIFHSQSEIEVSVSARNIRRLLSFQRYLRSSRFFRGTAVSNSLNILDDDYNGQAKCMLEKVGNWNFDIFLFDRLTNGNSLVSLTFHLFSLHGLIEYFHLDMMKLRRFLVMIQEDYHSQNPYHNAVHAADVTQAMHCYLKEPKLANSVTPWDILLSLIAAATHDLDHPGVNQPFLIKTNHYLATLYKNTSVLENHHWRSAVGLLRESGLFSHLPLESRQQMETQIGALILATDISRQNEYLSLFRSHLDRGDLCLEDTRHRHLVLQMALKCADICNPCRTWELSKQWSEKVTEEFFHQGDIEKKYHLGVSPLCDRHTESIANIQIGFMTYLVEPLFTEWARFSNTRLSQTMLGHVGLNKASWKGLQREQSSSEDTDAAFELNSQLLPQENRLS
assay.method.text: Inhibition of recombinant human PDE7A using cAMP as substrate after 10 mins by PDE-Glo Phosphodiesterase Assay
pIC50: −log10 of the molar value.

| compound | pIC50 |
| --- | --- |
| COc1nc2c(c(=O)n(C)c(=O)n2C)n1CC(=O)NCc1ccccc1Cl | < 3.70 |
| CCCCOc1nc2c(c(=O)n(C)c(=O)n2C)n1CCCC(=O)Nc1ccc(C(C)CC)cc1 (stereo not drawn) | 4.70 |
| CCCOc1nc2c(c(=O)n(C)c(=O)n2C)n1CCCC(=O)Nc1ccc(C(C)CC)cc1 (stereo not drawn) | 5.04 |
| CCCCOc1nc2c(c(=O)n(C)c(=O)n2C)n1CCCC(=O)Nc1cc(C(C)(C)C)ccc1O | 5.29 |
| CCOc1nc2c(c(=O)n(C)c(=O)n2C)n1CC(=O)Nc1cccc(Cl)c1 | < 3.70 |
| COc1nc2c(c(=O)n(C)c(=O)n2C)n1CCCC(=O)Nc1cccc(Cl)c1 | < 3.70 |
| CC(C)c1ccc(NC(=O)Cn2cnc3c2c(=O)n(C)c(=O)n3C)cc1 | < 3.70 |
| CCCOc1nc2c(c(=O)n(C)c(=O)n2C)n1CCCC(=O)Nc1ccc(C(C)(C)C)cc1 | 5.11 |
| CCOc1nc2c(c(=O)n(C)c(=O)n2C)n1CCCC(=O)Nc1ccc(C(C)C)cc1 | 4.02 |
| COc1nc2c(c(=O)n(C)c(=O)n2C)n1CC(=O)Nc1cccc(Cl)c1 | < 3.70 |
| CCOc1nc2c(c(=O)n(C)c(=O)n2C)n1CC(=O)Nc1ccc(C(C)C)cc1 | < 3.70 |
| COc1nc2c(c(=O)n(C)c(=O)n2C)n1CC(=O)Nc1ccc(C(C)(C)C)cc1 | < 3.70 |
| CCOc1nc2c(c(=O)n(C)c(=O)n2C)n1CC(=O)Nc1ccc(C(C)(C)C)cc1 | < 3.70 |

----------
experimental.target: Transient receptor potential cation channel subfamily A member 1 (Homo sapiens)
assay.method.text: Antagonist activity at human TRPA1 expressed in HEK293 cells assessed as decrease in flufenamic acid-evoked increase in intracellular calcium level at 100 uM measured for 180 secs with 1 sec interval by Fluo4-AM dye-based fluorescence assay relative to control
Type: cell-based
Reported inhibition values for the following molecules.
experimental.readout: inhibition (%)

| smiles.input | number |
| --- | --- |
| COc1nc2c(c(=O)n(C)c(=O)n2C)n1CCCC(=O)Nc1ccc(Cl)cc1 | 15 |
| CCOc1nc2c(c(=O)n(C)c(=O)n2C)n1CC(=O)NCc1ccccc1Cl | 7 |
| COc1nc2c(c(=O)n(C)c(=O)n2C)n1CC(=O)Nc1ccc(C(C)C)cc1 | 39 |
